# measured target: σ1 receptor (Cavia porcellus, UniProt Q60492)
# Sequence (Q60492 whole entry): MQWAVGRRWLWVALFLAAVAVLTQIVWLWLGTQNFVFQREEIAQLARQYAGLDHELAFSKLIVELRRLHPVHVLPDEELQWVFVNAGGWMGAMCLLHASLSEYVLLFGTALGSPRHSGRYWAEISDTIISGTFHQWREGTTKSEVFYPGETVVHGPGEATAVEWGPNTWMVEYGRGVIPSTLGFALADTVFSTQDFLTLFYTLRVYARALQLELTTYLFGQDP
quantity kind: LLE (ligand-lipophilicity efficiency)
// keep it numeric: no unit symbol after the value

Note to self: LLE (ligand-lipophilicity efficiency) recorded for c1ccc(CNCCCC[C@H]2CCO[C@@H](c3ccccc3)O2)cc1 (relative stereo) [17a] was 6.19

Briefly, LLE (ligand-lipophilicity efficiency) measured for c1ccc(C(CCC[C@H]2CCO[C@@H](c3ccccc3)O2)N2CCCC2)cc1 (relative stereo) [27a] : 4.59

According to the records, this molecule CC[C@]1(c2ccccc2)OCC[C@H](CCCCN(C)Cc2ccccc2)O1 (relative stereo) [18b] displays LLE (ligand-lipophilicity efficiency) of 4.52

Entry CC[C@]1(c2ccccc2)OCC[C@H](CCCCN2CCCC2)O1 (relative stereo) [19b] ; LLE (ligand-lipophilicity efficiency) = 5.96
